Sourced from PubChem BioAssay (NCI)

Recorded TGI for the following compounds
Tested on: 786-0 renal
assayDetails: NCI tumour cell line growth inhibition, 48 h

In the examples that follow, each entry is paired with its recorded TGI.
INSERT INTO assay_data (compound, endpointlabel, assayresult) VALUES
  ('CCOC(=O)/C(C(=S)NCc1ccccc1)=C(/N)N1CCCC1', 'TGI', '> 100 µM'),
  ('CC(C)(C)OC(=O)[C@@H]1ON2O[C@H](OC3CCCC3(c3ccccc3)c3ccccc3)C[C@H]3OC(=O)[C@@H]1[C@H]32 (stereo not given in full)', 'TGI', '> 100 µM'),
  ('CCCCOc1ccc(/C=N/Nc2cc(C)nc3ccc(Br)cc23)cc1', 'TGI', '3.37 µM'),
  ('COc1ccccc1[As]=[As]c1ccccc1OC (stereo not given)', 'TGI', '0.0853 µM'),
  ('O=C(Nc1ccccc1)OC1OC(COC(=O)c2ccccc2)C(OC(=O)c2ccccc2)C1OS(=O)(=O)c1ccc([N+](=O)[O-])cc1 (stereo not given)', 'TGI', '> 100 µM');

Input: Sample `c1ccc2c(c1)c1c3c(c4c(n32)=NCCN4)CCC1` — what was its TGI?
Output: > 100 µM

Input: Next up: `COc1ccc(N=Nc2ccc3oc(=O)c(C(=O)Nc4ccccc4C)cc3c2)cc1`
Output: > 10 µM

Input: Next up: `CC/C(Cl)=N\OC(=O)Nc1ccc(OC)c(C)c1`
Output: 36.8 µM

Input: Next up: `O=[N+]([O-])c1cc(N=Nc2c(O)ccc3cc(S(=O)(=O)O)ccc23)c(O)c([N+](=O)[O-])c1`
Output: > 100 µM

Input: Next up: `Cn1c(=O)cc2[nH]c3ccccc3n2c1=O`
Output: 62.9 µM

###

Recorded TGI for the following molecules
Test system: OVCAR-3 ovarian
assayDetails: NCI tumour cell line growth inhibition, 48 h
Please reply with the bare figure in µM and do not write the unit itself.

In the examples that follow, each entry is paired with its recorded TGI.
INSERT INTO assay_data (molecule, measurementunit, assayresult) VALUES
  ('CCCCCCCCCCCCN=C(N)c1ccc(N2CCN(c3ccc(C(N)=NCCCCCCCCCCCC)cc3)CC2)cc1', 'µM', 20.7),
  ('CCN1C(=O)N(CC)C2C1NN=c1s/c(=C3\C(=O)N(C4CCCC4)c4ccccc43)c(=O)n12 (stereo not given)', 'µM', 2.09);

Input: Sample `CN(C)Cc1ccc(NC(=O)c2cncc(C#Cc3cnc(N)c4ncccc34)c2)cc1F` — what was its TGI?
Output: 3.68

###

Tested on: BT-549 breast
assayDetails: NCI tumour cell line growth inhibition, 48 h
endpointLabel: TGI

INSERT INTO measurements (compound, endpointlabel, assayresult) VALUES
  ('CC/C(Cl)=N\OC(=O)Nc1ccc(OC)c(C)c1', 'TGI', '34.9 µM'),
  ('CN1C(=O)C(C(=O)Nc2ccccn2)C2C[C@@]1(C)Oc1ccccc12 (stereo not given in full)', 'TGI', '> 100 µM'),
  ('COc1ccc2c(O)c(/C=C3\N=Nc4ncccc43)oc2c1C[C@@H]1CCNC[C@H]1F', 'TGI', '2.53 µM');

Input: Sample `[N-]=[N+]=NCCCn1c2c(c3ccc([N+](=O)[O-])cc3c1=O)C(=O)c1cc(-c3ccccc3)ccc1-2` — what was its TGI?
Output: > 100 µM

Input: Next up: `CC(=O)/C(Br)=C/c1ccc(Br)o1`
Output: 18.6 µM

###

Test system: MCF7 breast
assayDetails: NCI tumour cell line growth inhibition, 48 h
endpointLabel: TGI (µM)
Please reply with the bare figure in µM and do not write the unit itself.

In the examples that follow, each entry is paired with its recorded TGI.
INSERT INTO assay_data (molecule, endpointlabel, assayresult) VALUES
  ('Cn1cc(C2=C(c3cn(CCCN)c4ccccc34)C(=O)NC2=O)c2ccccc21', 'TGI', 10.4),
  ('C=C1C(=O)O[C@H]2[C@H]1CC/C(COC(=O)/C=C\C(=O)NCc1ccc(Cn3c(=O)sn(CCI)c3=O)cc1)=C\CC[C@@]1(C)O[C@@H]21', 'TGI', 25.9),
  ('CCN(CC)CCN1c2nc3ccccc3cc2Sc2cc3ccccc3nc21', 'TGI', 2.1),
  ('CCC(=O)N1C/C(=C/c2ccc(Br)cc2)C(=O)/C(=C/c2ccc(Br)cc2)C1', 'TGI', 1.56);

Input: What measured TGI is associated with O=C(c1ccc([N+](=O)[O-])cc1)C(Br)C(Br)c1ccnc2ccccc12 (centres undefined) on MCF7 breast?
Output: 8.86

Input: Next up: `CN(C)CCCNC(=O)c1cc(NS(=O)(=O)c2ccc3c(c2)C(=O)c2ccccc2C3=O)cn1C`
Output: 46.4

Input: Next up: COc1ccccc1/C=C\C(=O)C1COCN1 (centres undefined)
Output: 36.8

Input: Next up: `C=CCNC1=C2C[C@@H](C)C[C@H](OC)[C@H](O)[C@@H](C)/C=C(\C)[C@H](OC(N)=O)[C@@H](OC)/C=C\C=C(/C)C(=O)NC(=CC1=O)C2=O`
Output: 16

Input: Next up: `Cc1c2ccncc2c(C)c2c1sc1ccccc12`
Output: 18.1

###

Recorded TGI for the following molecules
System: HOP-62 NSCLC
assayDetails: NCI tumour cell line growth inhibition, 48 h
Please reply with the bare figure in µM and do not write the unit itself.

INSERT INTO results (molecule, systemtested, measurementunit, assayresult) VALUES
  ('O=c1oc2ccccc2c(O)c1C(c1ccc(-c2ccccc2)cc1)c1c(O)c2ccccc2oc1=O', 'HOP-62 NSCLC', 'µM', 55.4);

Here's the next entry for you.
Input: Sample CSc1ccc(NC(=O)C2c3[nH]c4ccccc4c3C3CCC(C(C)(C)C)CC3C2C(=O)O)cc1 (stereo not given) — what was its TGI?
Output: 32.1

###

Tested on: A498 renal
assayDetails: NCI tumour cell line growth inhibition, 48 h
Recorded TGI for the following compounds
Please reply with the bare figure in µM and do not write the unit itself.

INSERT INTO measurements (compound, endpointlabel, measurementunit, assayresult) VALUES
  ('CN(C)CCCNC(=O)c1cc(NS(=O)(=O)c2ccc3c(c2)C(=O)c2ccccc2C3=O)cn1C', 'TGI', 'µM', 42.6),
  ('Cc1ccc(Cl)c(NS(=O)(=O)c2ccc(-c3cnc(C4CC4)o3)cc2)c1', 'TGI', 'µM', 0.303),
  ('COC1=C2CC(C)CC(OC)C(OC(=O)CN)[C@H](C)/C=C(\C)C(OC(N)=O)C(OC)/C=C\C=C(/C)C(=O)NC(=CC1=O)C2=O (stereo not given in full)', 'TGI', 'µM', 24.7);

Input: Sample `CCN(CC)c1ccc(-c2cc(-c3cc(OC)c(OC)c(OC)c3)nc(N3CCC(O)CC3)c2C#N)cc1` — what was its TGI?
Output: 14.2

Input: Next up: `O=C(Nc1cc(F)c(F)cc1C(=O)O)c1ccc(-n2ccnc2)nn1`
Output: 82

Input: Next up: C#CC1(O)C(COP(=O)(O)OCC2OC(n3cc(F)c(=O)[nH]c3=O)CC2O)OC(n2ccc(N)nc2=O)C1O (stereo not given)
Output: 0.199

Input: Next up: `COc1ccc(-c2cc(-c3ccc(Cl)cc3)nc(NCCCCNc3ccnc4cc(Cl)ccc34)n2)cc1`
Output: 17.4

Input: Next up: `S=C(N/N=C/c1ccccn1)N1CC2CCC(CC2)C1`
Output: 2.93

###

Test system: NCI-H23 lung
assayDetails: NCI tumour cell line growth inhibition, 48 h
endpointLabel: TGI

Input: Sample `CC1(C)C(=O)C(C)(C)C1=NNC(N)=S` — what was its TGI?
Output: > 100 µM

Input: Next up: `CN(C)Cc1ccc(NC(=O)c2cncc(C#Cc3cnc(N)c4ncccc34)c2)cc1F`
Output: 34 µM

Input: Next up: O=CC1C(Cl)=Nc2nc3ccccc3n2C1c1ccccc1 (stereo unspecified)
Output: 56.6 µM

###

Test system: SK-MEL-2 melanoma
assayDetails: NCI tumour cell line growth inhibition, 48 h
endpointLabel: TGI

INSERT INTO measurements (compound, assayresult) VALUES
  ('CC(=O)c1ccccc1NC(=O)C(=O)C(C(=O)c1ccccc1-c1ccccc1)C1OC(=O)c2ccccc21 (stereo not given)', '40.5 µM'),
  ('COc1ccc(N=Nc2ccc3oc(=O)c(C(=O)Nc4ccccc4C)cc3c2)cc1', '> 10 µM'),
  ('Cn1c(=O)cc2[nH]c3ccccc3n2c1=O', '> 100 µM'),
  ('COC(=O)Cc1c([C@H]2[C@H](CC(=O)OC)c3ccccc3N2S(=O)(=O)c2ccc(C)cc2)[nH]c2ccccc12', '> 100 µM');

Input: Sample CCOC(=O)CCC(NC(=O)c1ccc(Oc2nc3c(N)cc(C(F)(F)F)cc3nc2-c2ccccc2)cc1)C(=O)OCC (stereo not given) — what was its TGI?
Output: > 30.7 µM
